assay.summary: gradient 5% acetonitrile 3 min, to 50% in 2 min, to 85% in 15 min, held 3 min, 100 µL/min
protocol.conditions: column: Zorbax Extend-C18 2.1 x 50 mm; eluents: water / acetonitrile, 0.1% formic acid
Strictly below 800 s in RP-LC retention time: Y. Otherwise: N.

- test.smiles: "O=C(c1cc(Cl)ccc1Cl)N1CCN(c2cc(-c3ccccc3)[nH]n2)CC1"
  group.label: "N"
- test.smiles: "O=C(Cc1csc2nc(-c3ccccc3)cn12)Nc1ccc(Cl)cc1F"
  group.label: "N"
- test.smiles: "COc1ccc(-c2cn3cccnc3n2)cc1NC(=O)c1ccc(Br)cc1"
  group.label: "Y"
- test.smiles: "Cc1cnc(C2CC2)n1CCNS(=O)(=O)c1cccc(F)c1"
  group.label: "Y"
- test.smiles: "CSc1ccc(CNC(=O)C2CCN(c3ccc(N4CCOCC4)nn3)CC2)cc1"
  group.label: "Y"
- test.smiles: "CCN1CCN(CCNC(=O)CN2C(=O)CSc3cccn3-c3ccccc32)CC1"
  group.label: "Y"
- test.smiles: "CCN1C(=O)c2cccnc2Sc2cc(NC(=O)COc3ccc(Cl)cc3)ccc21"
  group.label: "N"
- test.smiles: "Cc1ccc(S(=O)(=O)Cc2noc(-c3ccc(Br)cc3)n2)cc1"
  group.label: "N"
- test.smiles: "CCc1ccc(Oc2cc(N3CCC(C(=O)NCCCc4ccccc4)CC3)ncn2)cc1"
  group.label: "N"
- test.smiles: "CCc1cccc(C)c1Nc1c(-c2ccc(Cl)cc2)nc2cnccn12"
  group.label: "N"
- test.smiles: "O=C(CN1C(=O)NC2(CCCCC2)C1=O)Nc1ccc2c(c1)CCC2"
  group.label: "N"
- test.smiles: "COC(=O)CC(=O)Nc1cc2c(cc1N1CCCCC1)n(C)c(=O)n2C"
  group.label: "Y"
- test.smiles: "COc1ccccc1CNC(=O)Cn1c(=O)c2cc(C3CC3)nn2c2ncccc21"
  group.label: "Y"

====

# RP-LC retention time annotations
assay.summary: gradient 5% acetonitrile 3 min, to 50% in 2 min, to 85% in 15 min, held 3 min, 100 µL/min
protocol.conditions: column: Zorbax Extend-C18 2.1 x 50 mm; eluents: water / acetonitrile, 0.1% formic acid
observation.type: RP-LC retention time (s)

- compound: "COc1ccc(C)cc1NC(=O)[C@@H]1[C@H](c2cc(OC)c(OC)c(OC)c2)c2cc3c(cc2[C@H](O)[C@H]1CO)OCO3"
  number: 795
- compound: "CC1(C)C(=O)N(CCN2CCC(C(=O)c3ccc(F)cc3)CC2)c2ccccc21"
  number: 755
- compound: "COc1ccc(C2(C(=O)N3CCCC(c4nc(-c5ccc(NC(C)=O)cc5)no4)C3)CC2)cc1 (centres undefined)"
  number: 835
- compound: "CCCn1ncc(N2CCC(C(=O)NCCCOC(C)C)CC2)cc1=O"
  number: 650
- compound: "CN1CCN(c2ccc(NC(=O)c3ccc(Br)cc3)c(C(=O)O)c2)CC1"
  number: 653
- compound: "CCn1ncc(N2CCCC(CC(=O)N3CCC4(CC3)OCCO4)C2)cc1=O (centres undefined)"
  number: 646
- compound: "CCN1c2cc(Cl)ccc2C(=O)NC12CCN(C(=O)Nc1ccc(C)cc1C)CC2"
  number: 968
- compound: "O=C1CC(c2noc(-c3cc(F)ccc3Cl)n2)CN1c1ccc(F)cc1 (centres undefined)"
  number: 1020
- compound: "O=C1CC(c2noc(-c3cc(F)ccc3F)n2)CN1c1ccc(F)c(Cl)c1 (centres undefined)"
  number: 1110
- compound: "CN(C)CCNC(=O)C1CCCN(c2ccc(=O)n(-c3cccc(Cl)c3)n2)C1 (centres undefined)"
  number: 929
- compound: "FC(F)(F)c1nc(N2CCN(Cc3ccccc3)CC2)nc2c1CCCCC2"
  number: 885
- compound: "CCc1cccc(NC(=O)N2CCc3nc[nH]c3C2)c1"
  number: 606
- compound: "COc1ccccc1CCNC(=O)CSc1nc(=O)n(Cc2ccco2)c2c1CCC2"
  number: 739
- compound: "COc1ccc(OC)c(NC(=O)c2[nH]c3cc(C)sc3c2CN(C)C)c1"
  number: 692
- compound: "CN(CC(=O)N1CCCCC1)S(=O)(=O)c1ccc2c(c1)CCCC(=O)N2"
  number: 676
- compound: "COc1ccc(CNC(=O)NCc2nnnn2-c2ccc(F)c(F)c2)cc1OC"
  number: 678
- compound: "CCOC(=O)C1=C(CN2CCN(Cc3ccccc3)CC2)NC(=O)NC1c1ccc(OC(C)C)cc1 (centres undefined)"
  number: 713
- compound: "CCOC(=O)N1CCN(c2cc(C(=O)O)c3cc(NC(=O)CC)ccc3n2)CC1"
  number: 553
- compound: "CCOC(=O)C1CCCN(c2nc(Nc3ccc(F)cc3)c3n[nH]nc3n2)C1 (centres undefined)"
  number: 824
